The sequences listed here are annotated with their protease stability score.
- protocol_notes: protease stability score; higher = more stable; yeast display proteolysis, trypsin and chymotrypsin;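 also: log10 excess protease needed over predicted unfolded state with 0 meaning unfolded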
Answer using only a numeral; do not append any unit.

Inquiry: # lookup: protease stability score of `DEERKKQAEHFMRVYQQGNEEELNKLMDPNVKANVGDKEWQGREKMAKDTREKLEHSKLQLHSVSVDAQGNNIRIDVSFVVNHNGEPRRNHQTIIIHIDNGRITRLEVKDTS`
Reply text: 0.004

Inquiry: Likewise for `EEEQITKLEEVLKDVETGDPNKLIDNFDPNVRYDYGDKKYHGMTNWAKDVVSKAKEQHVTRHVTDVKVQGNHASMTADVNNDHNGRPHKQKQDIQFTFHNGKIKNVHVQETK` ?
Reply text: -0.667

Inquiry: `EEEDVRKAKKFIQLLNSNDQENLKTLADPNATFRYGDKHIHGMDRVNQYLDRVDHTMKRDIEVTSMSAQGDHVRIHAIMRFKVNGNPDQIDIIIVVVVENGRIKEVQIRMPEEDKRRVDR` ?
Reply text: 0.416

Inquiry: Subsequent entry: `DEEDIARQLAEDFRKVLENGDPDEMRKNADKDARLKVGDKQVHGRDEMVKYFEKLNKEYDRVHIHIKSVSAQGDKLRVEIQVVWNSNGKNDKTTYDLVFQHDDGHVKLLEIRES`
Reply text: 0.539

Inquiry: Now the same for `DEENQKIFDEYVKALRTNNPERLNEMLDPNARVQVGDKEVHGMDDLSRTVNQMIDNLHLNLKIESVHVRGNTLSVDAEYVLNVNGKPQRRSVEIEIHAHNGTVKFLRMRVDPREEQKIKS`
Reply text: 0.363

Inquiry: What would you report for `DEQRIADNLDERFRRVMENNNEDELRKLFDKDARVRVGDKTLHGREEVDKRLREILQRADHIDIKVNDIHVRGDKINIHFKIRIVVDGRDRFYTAVVRADVHNGEAKIVELKQS` ?
Reply text: 0.213

Ref: the NTF2 design screens of Basanta et al. (2020)
